Target: 17-beta-hydroxysteroid dehydrogenase type 1 (Homo sapiens) (UniProt P14061);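 further: enzyme source was human placental cytosol with tritiated estrone as substrate, 10 min reaction, conversion quantified by HPLC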
Sequence (whole entry): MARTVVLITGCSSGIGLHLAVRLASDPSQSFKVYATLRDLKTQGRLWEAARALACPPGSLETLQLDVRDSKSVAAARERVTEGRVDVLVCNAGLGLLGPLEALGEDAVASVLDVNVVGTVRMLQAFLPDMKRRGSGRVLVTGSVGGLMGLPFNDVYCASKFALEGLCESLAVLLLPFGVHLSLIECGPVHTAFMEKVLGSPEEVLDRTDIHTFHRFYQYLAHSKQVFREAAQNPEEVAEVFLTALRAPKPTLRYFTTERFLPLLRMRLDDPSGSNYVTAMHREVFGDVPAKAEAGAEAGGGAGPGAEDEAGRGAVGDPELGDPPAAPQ
Conditions: at 1 µM
Description: Inhibition of 17beta-HSD1 in human placental cytosolic fraction using [3H]E1 as substrate after 10 mins at 1 uM by HPLC analysis
readout-kind: inhibition (%)

[
  {
    "structure-notation": "COc1cccc(N(C)C(=O)c2ccc(-c3ccccc3)s2)c1",
    "inhibition [%]": 24
  }
]

[I] COc1cccc(N(C)C(=O)c2ccc(-c3ccc(F)c(OC)c3)s2)c1
[II] CN(Cc1cccc(O)c1)C(=O)c1cccc(-c2cccc(O)c2)c1
Req: Given the listed records, identify the one among I and II with higher inhibition. Please identify the chosen entry by its label.
Resp: I

[P] COc1cccc(-c2ccc(C(=O)N(C)c3cccc(-c4ccccc4)c3)s2)c1
[Q] COc1cccc(N(C)C(=O)c2ccc(-c3ccc(OC)cc3OC)s2)c1
Req: // which entry reports the smaller inhibition, P or Q ? Please identify the chosen entry by its label.
Resp: Q

[A] COc1ccc(N(C)C(=O)c2ccc(-c3cccc(OC)c3F)s2)cc1
[B] COc1cccc(N(C)C(=O)c2ccc(-c3cccc(N(C)C)c3)s2)c1
Req: // which entry reports the smaller inhibition, A or B ? Please identify the chosen entry by its label.
Resp: B
(B: 11%, A: 18%)

[a] COc1cccc(-c2ccc(C(=O)N(C)c3cccc(C(F)(F)F)c3)s2)c1
[b] CN(CCc1cccc(O)c1)C(=O)c1ccc(-c2cccc(O)c2)s1
Req: // which entry reports the smaller inhibition, a or b ? Please identify the chosen entry by its label.
Resp: a
(a: 13%, b: 23%)

----------
species: Homo sapiens; assay: Selectivity ratio of IC50 for 17beta-HSD1 in human placental microsomal fraction to IC50 for 17beta-HSD2 in human placental microsomal fraction; assay type: microsomes; details: Microsome
readout-kind: Ratio IC50

[
  {
    "structure-notation": "Cc1cccc(N(C)C(=O)c2ccc(-c3cccc(O)c3)s2)c1",
    "Ratio IC50": 11
  },
  {
    "structure-notation": "COc1cccc(N(C)C(=O)c2ccc(-c3ccc(OC)cc3OC)s2)c1",
    "Ratio IC50": 6
  },
  {
    "structure-notation": "COc1cccc(-c2ccc(C(=O)N(C)c3cccc(C)c3)s2)c1",
    "Ratio IC50": 55
  },
  {
    "structure-notation": "COc1cccc(N(C)C(=O)c2ccc(-c3cccc(N(C)C)c3)s2)c1",
    "Ratio IC50": 63
  }
]

[P] COc1cccc(-c2ccc(C(=O)N(C)c3cccc(-c4ccccc4)c3)s2)c1
[Q] COc1cccc(N(C)C(=O)c2ccc(-c3ccccc3)s2)c1
[R] COc1cccc(-c2ccc(C(=O)N(C)Cc3cccc(O)c3)s2)c1F
[S] CN(Cc1cccc(O)c1)C(=O)c1ccc(-c2cccc(O)c2)s1
Req: Task for the reader: rank each entry by its Ratio IC50, from the minimum upward. State the ranking by listing the labels in the requested order.
Resp: P, S, Q, R

The origin of these recorded values is ChEMBL document CHEMBL2321834.
